assay: Dark toxicity in human MCF7 cells assessed as reduction in cell viability up to 10 uM measured after 24 hrs by MTT assay; format: cell-based; details: mcf7, 24 h

[
  {
    "Smiles Input": "Cc1cccn2c1cc1c3ccccc3nc(-c3cccs3)c12",
    "Activity": "Non-Toxic"
  },
  {
    "Smiles Input": "Clc1ccc(-c2nc3ccccc3c3cc4ccccn4c23)s1",
    "Activity": "Non-Toxic"
  },
  {
    "Smiles Input": "Brc1ccc2cc3c4ccccc4nc(-c4ccco4)c3n2c1",
    "Activity": "Toxic"
  },
  {
    "Smiles Input": "c1csc(-c2nc3ccccc3c3cc4ccccn4c23)c1",
    "Activity": "Non-Toxic"
  },
  {
    "Smiles Input": "Cc1cccn2c1cc1c3ccccc3nc(-c3ccc(Cl)o3)c12",
    "Activity": "Non-Toxic"
  },
  {
    "Smiles Input": "Cc1cccn2c1cc1c3ccccc3nc(-c3ccco3)c12",
    "Activity": "Non-Toxic"
  }
]
